# Tested on: CCD-18Co human normal fibroblast colon cells
# ASSAY COMMENT: MTT cytotoxicity, normal colon cells CCD-18Co
# Assay type: cell-based
# REPORTED CONDITIONS: 24 h treatment, toxicity to normal cells
pIC50: −log10 of the molar value.
REPORTED ENDPOINT: pIC50

Observe how each entry below is paired with its result.
{"COMPOUND": "CCCCCC(CC(=O)CCc1ccc(O)c(OC)c1)OC (stereo not shown)", "REPORTED ENDPOINT": "pIC50", "MEAS VALUE": "< 4.00"}
{"COMPOUND": "CCCCCC(CC(O)CCc1ccc(O)c(OC)c1)SC (stereo not shown)", "REPORTED ENDPOINT": "pIC50", "MEAS VALUE": "< 4.00"}

## Task Requested read-out: pIC50. Entry: CCCCCC=CC(O)CCc1ccc(O)c(OC)c1 (stereo not shown)
## Result < 4.00
